Origin of the recorded values: paper PMC4648050

Molecular target: PDK1 (Homo sapiens)
Sequence (O15530 1-556): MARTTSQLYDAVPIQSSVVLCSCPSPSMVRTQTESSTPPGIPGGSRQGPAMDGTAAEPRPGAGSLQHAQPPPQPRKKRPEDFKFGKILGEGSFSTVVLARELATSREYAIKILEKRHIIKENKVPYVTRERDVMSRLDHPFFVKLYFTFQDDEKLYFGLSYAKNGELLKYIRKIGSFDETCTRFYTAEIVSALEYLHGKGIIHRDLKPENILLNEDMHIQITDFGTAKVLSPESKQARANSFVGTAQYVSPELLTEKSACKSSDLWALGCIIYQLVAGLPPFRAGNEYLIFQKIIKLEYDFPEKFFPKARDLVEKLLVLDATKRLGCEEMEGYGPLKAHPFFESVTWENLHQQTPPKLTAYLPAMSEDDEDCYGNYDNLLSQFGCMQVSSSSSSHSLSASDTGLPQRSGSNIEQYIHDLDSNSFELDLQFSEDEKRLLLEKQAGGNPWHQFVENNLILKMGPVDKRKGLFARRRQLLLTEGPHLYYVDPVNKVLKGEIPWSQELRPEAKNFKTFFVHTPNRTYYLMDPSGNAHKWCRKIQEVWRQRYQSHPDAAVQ
Test: Kinase panel: PDK1
Format: biochemical, human/mammalian
Conditions: compound at 10 μM, read-out: % of activity respect of the control
Measurement Kind: remaining activity at 10 µM (%)

Molecule: O=c1[nH]c2ncc(-c3ccc(F)cc3)nc2n1CC1CC1 [Compound 10]
Assay Result: 96

Molecule: O=c1[nH]c2ncc(-c3ccc(F)cc3)nc2n1C1CCCCC1 [Compound 12]
Assay Result: 98

Molecule: CC(c1ccccc1)n1c(=O)[nH]c2ncc(-c3ccc(F)cc3)nc21 (stereo not shown) [Compound 1]
Assay Result: 99

Molecule: C[C@H](c1ccccc1)n1c(=O)[nH]c2ncc(-c3ccccc3)nc21 [Compound 14]
Assay Result: 91

* * *

Target: MAPKAP-K2 (Homo sapiens, UniProt P49137)
Sequence (P49137 whole entry): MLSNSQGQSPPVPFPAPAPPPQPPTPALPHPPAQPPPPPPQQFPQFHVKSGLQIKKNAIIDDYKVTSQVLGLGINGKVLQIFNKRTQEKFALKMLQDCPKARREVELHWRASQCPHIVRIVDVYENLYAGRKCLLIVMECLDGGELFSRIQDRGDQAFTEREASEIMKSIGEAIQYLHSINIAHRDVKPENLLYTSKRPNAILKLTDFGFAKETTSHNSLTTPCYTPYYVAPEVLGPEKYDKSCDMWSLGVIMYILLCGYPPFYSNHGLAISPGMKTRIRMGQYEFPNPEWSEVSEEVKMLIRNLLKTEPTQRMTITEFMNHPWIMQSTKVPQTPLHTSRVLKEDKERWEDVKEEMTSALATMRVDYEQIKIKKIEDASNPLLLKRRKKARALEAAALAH
Test: Kinase panel: MAPKAP-K2
Type: biochemical, human/mammalian
Settings: compound at 10 μM, read-out: % of activity respect of the control
Measurement Kind: remaining activity at 10 µM (%)

Molecule: CC(c1ccccc1)n1c(=O)[nH]c2ncc(-c3ccc(F)cc3)nc21 (stereo not shown)
Measurement Kind: remaining activity at 10 µM
Unit Name: %
Assay Result: 90
--
Molecule: C[C@H](c1ccccc1)n1c(=O)[nH]c2ncc(-c3ccccc3)nc21
Measurement Kind: remaining activity at 10 µM
Unit Name: %
Assay Result: 84
--
Molecule: O=c1[nH]c2ncc(-c3ccc(F)cc3)nc2n1C1CCCCC1
Measurement Kind: remaining activity at 10 µM
Unit Name: %
Assay Result: 101
--
Molecule: O=c1[nH]c2ncc(-c3ccc(F)cc3)nc2n1CC1CC1
Measurement Kind: remaining activity at 10 µM
Unit Name: %
Assay Result: 104

* * *

Biological target: p38s MAPK (Homo sapiens, UniProt O15264)
Sequence (O15264 whole entry): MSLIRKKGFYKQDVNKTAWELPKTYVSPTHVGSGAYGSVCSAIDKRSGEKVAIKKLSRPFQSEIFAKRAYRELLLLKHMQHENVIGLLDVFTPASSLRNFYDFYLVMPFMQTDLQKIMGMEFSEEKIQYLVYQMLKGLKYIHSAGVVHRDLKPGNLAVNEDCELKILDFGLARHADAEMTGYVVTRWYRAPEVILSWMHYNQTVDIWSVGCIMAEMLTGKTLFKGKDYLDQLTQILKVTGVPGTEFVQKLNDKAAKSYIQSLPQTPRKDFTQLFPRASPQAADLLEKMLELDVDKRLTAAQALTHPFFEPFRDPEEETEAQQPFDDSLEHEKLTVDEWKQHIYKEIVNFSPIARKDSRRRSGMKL
Assay: Kinase panel: p38s MAPK
Assay type: biochemical, human/mammalian
Details: compound at 10 μM, read-out: % of activity respect of the control

Compound: C[C@H](c1ccccc1)n1c(=O)[nH]c2ncc(-c3ccccc3)nc21 [Compound 14]
System Under Test: p38s MAPK (Homo sapiens, UniProt O15264)
remaining activity at 10 µM [%]: 77
--
Compound: CC(c1ccccc1)n1c(=O)[nH]c2ncc(-c3ccc(F)cc3)nc21 (stereo not shown) [Compound 1]
System Under Test: p38s MAPK (Homo sapiens, UniProt O15264)
remaining activity at 10 µM [%]: 108
--
Compound: O=c1[nH]c2ncc(-c3ccc(F)cc3)nc2n1C1CCCCC1 [Compound 12]
System Under Test: p38s MAPK (Homo sapiens, UniProt O15264)
remaining activity at 10 µM [%]: 76
--
Compound: O=c1[nH]c2ncc(-c3ccc(F)cc3)nc2n1CC1CC1 [Compound 10]
System Under Test: p38s MAPK (Homo sapiens, UniProt O15264)
remaining activity at 10 µM [%]: 91

* * *

Target: PAK4 (Homo sapiens)
Sequence (O96013 whole entry): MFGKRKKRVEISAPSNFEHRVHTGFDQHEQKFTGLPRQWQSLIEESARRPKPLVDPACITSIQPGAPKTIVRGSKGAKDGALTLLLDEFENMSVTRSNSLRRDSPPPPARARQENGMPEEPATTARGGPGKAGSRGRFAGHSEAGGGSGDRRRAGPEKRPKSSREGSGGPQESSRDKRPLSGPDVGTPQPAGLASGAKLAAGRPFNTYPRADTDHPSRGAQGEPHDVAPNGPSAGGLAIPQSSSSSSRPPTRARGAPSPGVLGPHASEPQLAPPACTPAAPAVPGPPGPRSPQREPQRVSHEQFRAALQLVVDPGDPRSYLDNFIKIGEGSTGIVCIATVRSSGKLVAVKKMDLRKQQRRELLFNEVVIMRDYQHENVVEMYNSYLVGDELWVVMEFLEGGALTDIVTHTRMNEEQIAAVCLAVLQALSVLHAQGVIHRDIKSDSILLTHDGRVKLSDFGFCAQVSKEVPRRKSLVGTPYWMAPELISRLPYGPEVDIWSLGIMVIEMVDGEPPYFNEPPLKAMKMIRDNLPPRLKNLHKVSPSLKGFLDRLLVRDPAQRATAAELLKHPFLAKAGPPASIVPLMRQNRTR
Assay: Kinase panel: PAK4
Format: biochemical, human/mammalian
Conditions: compound at 10 μM, read-out: % of activity respect of the control
Measurement Kind: remaining activity at 10 µM

Molecule: O=c1[nH]c2ncc(-c3ccc(F)cc3)nc2n1CC1CC1 [Compound 10]
Measurement Kind: remaining activity at 10 µM
Assay Result: 106%
//
Molecule: CC(c1ccccc1)n1c(=O)[nH]c2ncc(-c3ccc(F)cc3)nc21 (stereo not shown) [Compound 1]
Measurement Kind: remaining activity at 10 µM
Assay Result: 101%
//
Molecule: C[C@H](c1ccccc1)n1c(=O)[nH]c2ncc(-c3ccccc3)nc21 [Compound 14]
Measurement Kind: remaining activity at 10 µM
Assay Result: 86%
//
Molecule: O=c1[nH]c2ncc(-c3ccc(F)cc3)nc2n1C1CCCCC1 [Compound 12]
Measurement Kind: remaining activity at 10 µM
Assay Result: 103%

* * *

Test: Intrinsic clearance in mouse liver microsomes
Assay type: in vitro ADME
Conditions: mouse hepatic microsomes, 0.5 μM compound
Procedure: Intrinsic clearance experiments: Test compound (0.5 μM) was incubated with female CD1 mouse liver microsomes (Xenotech LLC; 0.5 mg mL^−1 50 mM potassium phosphate buffer, pH 7.4), and the reaction started with the addition of excess NADPH (8 mg mL^−1 50 mM potassium phosphate buffer, pH 7.4). Immediately, at t0, then at 3, 6, 9, 15, and 30 min an aliquot (50 μL) of the incubation mixture was removed and mixed with MeCN (100 μL) to stop the reaction. […]
Decide by CLint: equal to or exceeding 3 mL/min/g means true, less means false.

Compound: O=c1[nH]c2ncc(-c3cccnc3)nc2n1C1CCCCC1 [Compound 30]
Classification: false
--
Compound: O=c1[nH]c2ncc(-c3ccccc3)nc2n1C1CCCCC1 [Compound 19]
Classification: true
--
Compound: O=c1[nH]c2ncc(N3CCCCC3)nc2n1C1CCCCC1 [Compound 31]
Classification: true
--
Compound: O=c1[nH]c2ncc(-c3cccnc3)cc2n1C1CCCCC1 [Compound 55]
Classification: false
--
Compound: c1cncc(-c2cnc3[nH]nc(C4CCCCC4)c3c2)c1 [Compound 63]
Classification: true
--
Compound: O=c1[nH]c2ncc(N3CCCCC3)cc2n1C1CCCCC1 [Compound 56]
Classification: true
--
Compound: CC(c1ccccc1)n1c(=O)[nH]c2ncc(-c3ccc(F)cc3)nc21 (stereo not drawn) [Compound 1]
Classification: false
--
Compound: O=c1[nH]c2ncc(-c3ccccc3CO)nc2n1C1CCCCC1 [Compound 28]
Classification: false
--
Compound: O=c1[nH]c2ncc(-c3ccccc3)nc2n1C1CCOCC1 [Compound 38]
Classification: false
--
Compound: O=c1[nH]c2ncc(-c3ccccc3)cc2n1C1CCCCC1 [Compound 51]
Classification: true
--
Compound: O=c1[nH]c2ncc(-c3ccc(F)cc3)nc2n1C1CCCCC1 [Compound 12]
Classification: false
--
Compound: c1ccc(-c2cnc3[nH]nc(C4CCCCC4)c3c2)cc1 [Compound 60]
Classification: true

* * *

Target: UniProtKB P24941
Experiment: Kinase panel: CDK2-Cyclin A
Type: biochemical, human/mammalian
Conditions: compound at 10 μM, read-out: % of activity respect of the control
This section presents compounds with their documented remaining activity at 10 µM values.
Measurement Kind: remaining activity at 10 µM

Compound: C[C@H](c1ccccc1)n1c(=O)[nH]c2ncc(-c3ccccc3)nc21
Assay Result: 84%

Compound: O=c1[nH]c2ncc(-c3ccc(F)cc3)nc2n1CC1CC1
Assay Result: 82%

Compound: O=c1[nH]c2ncc(-c3ccc(F)cc3)nc2n1C1CCCCC1
Assay Result: 84%

Compound: CC(c1ccccc1)n1c(=O)[nH]c2ncc(-c3ccc(F)cc3)nc21 (stereo not shown)
Assay Result: 89%

* * *

Test system: AMPK
Test: Kinase panel: AMPK
Type: biochemical, human/mammalian
Settings: compound at 10 μM
Below: a set of entries, each annotated with reported % of activity respect of the control.

Molecule: O=c1[nH]c2ncc(-c3ccc(F)cc3)nc2n1C1CCCCC1
Unit Name: %
% of activity respect of the control: 100

Molecule: CC(c1ccccc1)n1c(=O)[nH]c2ncc(-c3ccc(F)cc3)nc21 (stereo not shown)
Unit Name: %
% of activity respect of the control: 97

Molecule: O=c1[nH]c2ncc(-c3ccc(F)cc3)nc2n1CC1CC1
Unit Name: %
% of activity respect of the control: 94

Molecule: C[C@H](c1ccccc1)n1c(=O)[nH]c2ncc(-c3ccccc3)nc21
Unit Name: %
% of activity respect of the control: 95

* * *

Target: UniProtKB P28482
Sequence (P28482 whole entry): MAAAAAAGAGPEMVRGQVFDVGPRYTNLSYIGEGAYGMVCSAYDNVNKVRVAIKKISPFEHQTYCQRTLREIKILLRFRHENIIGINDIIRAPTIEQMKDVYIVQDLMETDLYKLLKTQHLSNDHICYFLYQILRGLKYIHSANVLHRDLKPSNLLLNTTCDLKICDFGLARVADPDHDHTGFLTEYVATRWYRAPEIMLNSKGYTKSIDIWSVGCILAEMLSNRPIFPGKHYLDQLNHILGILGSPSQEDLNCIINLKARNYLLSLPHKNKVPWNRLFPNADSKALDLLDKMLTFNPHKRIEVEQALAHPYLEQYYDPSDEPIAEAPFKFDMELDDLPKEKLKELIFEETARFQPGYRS
Assay: Kinase panel: ERK2
Format: biochemical, human/mammalian
Conditions: compound at 10 μM, read-out: % of activity respect of the control
Measurement Kind: remaining activity at 10 µM (%)

Compound: C[C@H](c1ccccc1)n1c(=O)[nH]c2ncc(-c3ccccc3)nc21 [Compound 14]
System Under Test: UniProtKB P28482
Measurement Kind: remaining activity at 10 µM
Assay Result: 121
//
Compound: O=c1[nH]c2ncc(-c3ccc(F)cc3)nc2n1C1CCCCC1 [Compound 12]
System Under Test: UniProtKB P28482
Measurement Kind: remaining activity at 10 µM
Assay Result: 41
//
Compound: CC(c1ccccc1)n1c(=O)[nH]c2ncc(-c3ccc(F)cc3)nc21 (stereo not shown) [Compound 1]
System Under Test: UniProtKB P28482
Measurement Kind: remaining activity at 10 µM
Assay Result: 65
//
Compound: O=c1[nH]c2ncc(-c3ccc(F)cc3)nc2n1CC1CC1 [Compound 10]
System Under Test: UniProtKB P28482
Measurement Kind: remaining activity at 10 µM
Assay Result: 84
